The reported numbers originate from ChEMBL document CHEMBL4513216.

Tested on: Plasmodium berghei
Experiment: Screen against P. berghei liver stage (PbLuc), transformed with Luciferase, at 10uM
Assay type: functional, HepG2
Details: tested at 10 uM
Among all 69,000 compounds or so, about 8,600 (12%) showed an effect of 50% or more. Only a selection was taken, and strong results are over-represented in it overall.
Mark satisfied only when INHIBITION stays strictly below 20%. Values equal to the cut-off are not satisfied.

Qu. Decide: INHIBITION of COC(=O)c1ccc(N(C(=O)c2ccncc2)C(C)C)c(C)c1 strictly below 20%?
Ans. satisfied

Qu. Decide: INHIBITION of CC(C)[C@H]1CN(Cc2ccccn2)C[C@@H]1NC(=O)CC1CCC1 strictly below 20%?
Ans. not satisfied

Qu. Decide: INHIBITION of Cc1nccn1Cc1nnc(C2CCN(c3ccncc3F)CC2)n1C strictly below 20%?
Ans. satisfied

Qu. Decide: INHIBITION of COCC(=O)N1CCC2(CC1)CC(OC)c1ccc(F)cc12 (centres undefined) strictly below 20%?
Ans. not satisfied

Qu. Decide: INHIBITION of Cc1cc(NCCc2nc(C)c[nH]2)nc(-c2ccccc2O)n1 strictly below 20%?
Ans. not satisfied

Qu. Decide: INHIBITION of Cn1cc(N2C(=O)CC[C@@H]3[C@H]2CCN3Cc2ccncc2)cn1 strictly below 20%?
Ans. satisfied

Qu. Decide: INHIBITION of O=C(c1cccnc1)N1CCC[C@]2(C[C@H](Oc3ncccc3F)CO2)C1 strictly below 20%?
Ans. satisfied

Qu. Decide: INHIBITION of COCCN1CCC2(CC1)CC(CC(N)=O)c1ccc(F)cc12 (centres undefined) strictly below 20%?
Ans. satisfied

Qu. Decide: INHIBITION of COCCN1CCc2c(cnc(-c3ccccc3)c2C(=O)O)C1 strictly below 20%?
Ans. not satisfied

Qu. Decide: INHIBITION of CN1CCCC1c1ccnc(-c2ccccn2)n1 (centres undefined) strictly below 20%?
Ans. satisfied

Qu. Decide: INHIBITION of CN(C)Cc1cc(=O)n2c(n1)CN(C(=O)Cc1cccs1)CCC2 strictly below 20%?
Ans. not satisfied

Qu. Decide: INHIBITION of CNC(=O)CC1CC2(CCNCC2)c2cc(F)ccc21 (centres undefined) strictly below 20%?
Ans. not satisfied

Qu. Decide: INHIBITION of CCc1cnc(CN2CCC(N(Cc3noc(CC)n3)C(C)=O)C2)o1 (centres undefined) strictly below 20%?
Ans. satisfied

Qu. Decide: INHIBITION of Cn1c(C2CC2)nc2c1CCN(CC(=O)Nc1ccncc1)C2 strictly below 20%?
Ans. satisfied

---

Test system: Plasmodium berghei
Assay: Screen against P. berghei liver stage (PbLuc), transformed with Luciferase, at 10uM
Assay type: functional, HepG2
Settings: tested at 10 uM
Among all 69,000 compounds or so, about 8,600 (12%) showed an effect of 50% or more. This excerpt belongs to a sample that is enriched for strong results.
Reported INHIBITION values for the following molecules.
Give the quantity in %, number only.

Reference set, count: 2
COCC1CCN(c2ccnc3ccsc23)C1 (stereo not drawn); 79.5
Cc1cc(CN2C[C@@H](C)[C@@]3(CCN(C)C3=O)C2)oc1C; 65.9

Qu. Looking for the measured INHIBITION of Cc1noc(C)c1-c1cncc(C2CCCN2Cc2cncnc2)n1 (stereo not drawn) , can you help?
Ans. 22.2

Qu. Looking for the measured INHIBITION of Cc1nc(N2CCCC2)nc2c1CCN(C(=O)CN(C)C)CC2 , can you help?
Ans. 20.1

Qu. Looking for the measured INHIBITION of O=C(c1cnccn1)N1CCN(c2ccnc3ccsc23)CC1 , can you help?
Ans. -7.46

Qu. Looking for the measured INHIBITION of Cc1nc(C2CCCN(C(=O)c3ccc(N4CCCC4)nn3)C2)no1 (stereo not drawn) , can you help?
Ans. -19.4

Qu. Looking for the measured INHIBITION of O=C(c1ccc(O)cc1)N1C[C@@H]2OCCN(c3ncccn3)[C@@H]2C1 , can you help?
Ans. -15.2

Qu. Looking for the measured INHIBITION of Cn1nc(Br)c2c(NCCSCCCO)ncnc21 , can you help?
Ans. 23.1

Qu. Looking for the measured INHIBITION of CCc1csc(C2CCCN(C(=O)COc3cc(C)on3)C2)n1 (stereo not drawn) , can you help?
Ans. 46.2

---

System: Plasmodium berghei
Assay: Screen against P. berghei liver stage (PbLuc), transformed with Luciferase, at 10uM
Assay type: functional, HepG2
Conditions: tested at 10 uM
Out of some 69,000 compounds screened, about 8,600 (12%) showed an effect of 50% or more. The sample holds strong results, similar compounds and a random draw of the others, so the mix is not that of the screen.
assay.metric: INHIBITION (%)
Give the quantity in %, number only.

Reference set, count: 3
O=C(Nc1cccnc1)C1=Cc2ccccc2OC1; -25
N#Cc1ccc(N2CCN(c3ccc4nncn4n3)CC2)nc1; -23.4
O=C(CCOc1ccc(Cl)cc1)N1CCN(c2cnccn2)CC1; 3.19

Qu. Looking for the measured INHIBITION of CCN1C(=O)C(C#N)=C(C)/C(=C/C2=Cc3ccccc3OC2)C1=O , can you help?
Ans. 51.7

Qu. Looking for the measured INHIBITION of CC1=C(C#N)C(=O)N(C)C(=O)/C1=C\C1=Cc2ccccc2OC1 , can you help?
Ans. 92.5

Qu. Looking for the measured INHIBITION of Cc1cc(S(=O)(=O)NCC(C)(C)N)c(F)cc1F , can you help?
Ans. 48.8

---

Reported INHIBITION values for the following compounds.
Tested on: Plasmodium berghei
Assay: Screen against P. berghei liver stage (PbLuc), transformed with Luciferase, at 10uM
Assay type: functional, HepG2
Conditions: tested at 10 uM
In all, about 69,000 compounds went through this assay and about 8,600 (12%) showed an effect of 50% or more. The entries come from a sample that favours strong results as a whole.
Give the quantity in %, number only.

Reference set, count: 5
CN1Cc2ccccc2CC2(CCN(C(=O)[C@H]3CCCO3)CC2)C1=O; 59.3
CCNC(=O)N1CCC(NC(=O)NCCc2ccc(C)cc2C)C1 (configuration not stated); 51.7
CCCc1nc(C)c(C(=O)NCCN2CCOCC2)s1; -65.3
CNc1nc(C(=O)N2CCn3nc(C(=O)OC)cc3C2)cs1; 9.16
CCN1CC[C@]2(CN(C(=O)C3CCOCC3)C[C@H]2c2ccccc2)C1=O; 20.1

Qu. Provide value of INHIBITION for this record tested with Plasmodium berghei: COc1ccc(NC(C)=O)cc1OCc1cccnc1
Ans. 66.5

Qu. Provide value of INHIBITION for this record tested with Plasmodium berghei: Cc1nn(C)c(C)c1C1CCCN1C(=O)c1ccc(C(N)=O)cn1 (configuration not stated)
Ans. 9.555

Qu. Provide value of INHIBITION for this record tested with Plasmodium berghei: Cc1nn(C)c(Cl)c1C1CCCN1C(=O)c1ccc(N(C)C)nn1 (configuration not stated)
Ans. 53.8

Qu. Provide value of INHIBITION for this record tested with Plasmodium berghei: CC(C(=O)O)n1nc(C(F)(F)F)c(Cl)c1C1CC1 (configuration not stated)
Ans. 7.3

Qu. Provide value of INHIBITION for this record tested with Plasmodium berghei: CC(C)n1ccnc1CN1CCOC(CCc2ccccc2)C1 (configuration not stated)
Ans. 9.34

---

System: Plasmodium berghei
Assay: Screen against P. berghei liver stage (PbLuc), transformed with Luciferase, at 10uM
Assay type: functional, HepG2
Settings: tested at 10 uM
About 8,600 (12%) of roughly 69,000 compounds showed an effect of 50% or more. The entries come from a sample that favours strong results as a whole.
assay.metric: INHIBITION

Reference set, count: 8
COc1ccc(-c2nnc(CNCCn3cccn3)o2)cc1; 23.5%
CCCS(=O)(=O)N1CCOC2(CCCN(c3ccccn3)C2)C1 (configuration not stated); 11.4%
OC(COCc1ccccc1)CSc1nnc(C2CC2)n1C1CC1 (configuration not stated); 52.8%
Cn1c(SCC(O)COCc2ccccc2Cl)nnc1C1CC1 (configuration not stated); 36.6%
CN(CC(=O)NCc1ccco1)Cc1nc2c(s1)CCCC2; 40.8%
CC1c2ncc(CNC(=O)C3CC3)n2CCN1Cc1cnn(C)c1 (configuration not stated); -8.94%
CN(CC(=O)NCC(F)(F)F)Cc1nc2c(s1)CCCC2; 46.7%
Cn1c(SCC(O)COCc2ccc(Cl)cc2)nnc1C1CC1 (configuration not stated); -18.6%

Qu. Looking for the measured INHIBITION of CCS(=O)(=O)N1CCOC2(CCCN(Cc3ccccn3)C2)C1 (configuration not stated) , can you help?
Ans. -28.1%

---

Tested on: Plasmodium berghei
Assay: Screen against P. berghei liver stage (PbLuc), transformed with Luciferase, at 10uM
Type: functional, HepG2
Conditions: tested at 10 uM
Screen size: about 69,000 compounds; about 8,600 (12%) showed an effect of 50% or more. What follows is part of a selection rich in strong results, with near analogues and random picks from the rest.
assay.metric: INHIBITION (%)
Give the quantity in %, number only.

Reference set, count: 6
Cc1cnccc1-n1nc(C(C)C)nc1CCc1cnccn1; -3.12
CCn1nc(C)c2nc(C(C)C)nc(N3CCOCC3)c21; -38.8
O=C(NC1CCCc2nc(N3CCCCC3)ncc21)C1CCCC1 (stereo not given); 40
O=c1[nH][nH]cc1-c1ccnc(NCCCN2CCOCC2)n1; 39.7
Cc1nc2[nH]cnc(NCCN3CCOCC3)c-2n1; 36.8
CCCn1nccc1NC(=O)CN1CCCC1c1cccn1C (stereo not given); 25.1

Qu. Looking for the measured INHIBITION of Fc1ccc(-c2n[nH]cc2-c2ccnc(NCCN3CCCC3)n2)cc1 , can you help?
Ans. 35.3

Qu. Looking for the measured INHIBITION of Cc1[nH]c2ccccc2c1-c1ccnc(NCCN2CCCCC2)n1 , can you help?
Ans. 61.9

Qu. Looking for the measured INHIBITION of CCCN(Cc1cnn(C)c1)S(=O)(=O)c1cc(C)cc(F)c1 , can you help?
Ans. -6.11

Qu. Looking for the measured INHIBITION of CCN1CCn2c(C)cnc2C12CCN(C(=O)COC)CC2 , can you help?
Ans. -6.05

Qu. Looking for the measured INHIBITION of O=S(=O)(c1cc(F)ccc1F)n1cc(Cl)cn1 , can you help?
Ans. 48.8

Qu. Looking for the measured INHIBITION of CC(=O)c1cn(CC(=O)N[C@H](C(=O)O)C(C)C)c2ccccc12 , can you help?
Ans. 35.1

Qu. Looking for the measured INHIBITION of O=C(c1cccnc1)N1CCOC(Cc2ccccc2Cl)C1 (stereo not given) , can you help?
Ans. 0.55

Qu. Looking for the measured INHIBITION of CCc1nc(CNC(C)(CO)C2CCCCC2)no1 (stereo not given) , can you help?
Ans. 37.4

Qu. Looking for the measured INHIBITION of CN(Cc1ccco1)C1CCC12CCN(C(=O)c1ccnnc1)CC2 (stereo not given) , can you help?
Ans. -39.3

Qu. Looking for the measured INHIBITION of CC(C)N1CCC(c2cnc(-c3cn[nH]c3)cn2)CC1 , can you help?
Ans. 20.5535

Qu. Looking for the measured INHIBITION of Cc1ccc(C(=O)N2CCC3(CC2)CC(c2ccccc2)C(=O)N3)cn1 (stereo not given) , can you help?
Ans. 30.5
